System: U2OS
Assay Remarks: Multiplex assay against U2OS
Type: toxicity, cell-based
Condition Notes: human, 12 h, 1 µM, compound concentration 1 uM, replicate 1
Measurement Type: Population Pyknosed Nuclei (%)
Give bare numbers, in %.

Worked examples, 4 molecules total:
NC(=O)Nc1cc(-c2cccc(F)c2)sc1C(=O)N[C@H]1CCCNC1 ... 10
Cc1nc(-c2cn3c(n2)-c2ccc(-c4cnn(C(C)(C)C(N)=O)c4)cc2OCC3)n(C(C)C)n1 ... 11
COc1cc(-n2cnc3cc(-c4ccc(Cl)cc4)sc3c2=O)ccc1OCCN1CCCC1 ... 16
O=C1NCN(c2ccccc2)C12CCN(CCCOc1ccc(F)cc1)CC2 [SPIRAMIDE] ... 6

Provide each entry's Population Pyknosed Nuclei (%) from the list below.
1. Cc1c(-c2ccc(O)cc2)n(Cc2ccc(OCCN3CCCCCC3)cc2)c2ccc(O)cc12
2. CN1CCN(c2ccc(OC(F)(F)F)c(Nc3ncc4c(n3)-c3c(c(C(N)=O)nn3CCO)CC4)c2)CC1
3. C[C@@]1(C(=O)Nc2ccc(F)nc2)CCCN1c1nc(Nc2cc(C3CC3)n[nH]2)c2cccn2n1
4. c1cn2cc(-c3ccc4cn[nH]c4c3)nc(Nc3ccc(N4CCOCC4)cc3)c2n1

Solution:
[9, 7, 15, 20]

Hi, could you look up Population Pyknosed Nuclei (%) for each item in my list?
1. Cc1cc(C)cc(-c2cnc3cc(Cl)c(-c4cccc(O)c4)cc3c2OCCCN)c1
2. Cn1cc(-c2[nH]c3cc(NC(=O)[C@H](N)C4CCCCC4)cc4c3c2C=NNC4=O)cn1
3. CN1CCCC(n2nc(Cc3ccc(Cl)cc3)c3ccccc3c2=O)CC1.Cl (stereo unspecified) [AZELASTINE HYDROCHLORIDE]
4. COc1ncc(-c2ccc3nccc(-c4ccnnc4)c3c2)cc1NS(=O)(=O)c1ccc(F)cc1F
5. C=CC(=O)Nc1cc2c(Nc3ccc(F)c(Cl)c3)ncnc2cc1OCCCN1CCOCC1.Cl.Cl [CANERTINIB DIHYDROCHLORIDE]
6. CN(C)C(=O)N[C@H]1CC[C@H](CCN2CCN(c3cccc(Cl)c3Cl)CC2)CC1.Cl [CARIPRAZINE HYDROCHLORIDE]
7. Cc1[nH]c(/C=C2\C(=O)Nc3ccc(S(=O)(=O)N(C)c4cccc(Cl)c4)cc32)c(C)c1C(=O)N1CCN(C)CC1
8. CNc1nc(NCc2ccc(NS(C)(=O)=O)cc2Cl)cc(-c2ccccn2)n1

Solution:
1: 12; 2: 11; 3: 16; 4: 18; 5: 83; 6: 6; 7: 9; 8: 17

Items follow; give Population Pyknosed Nuclei (%) for each.
1. CC(C)NCC(O)COc1ccc(CCOCC2CC2)cc1.Cl (stereo unspecified) [BETAXOLOL HYDROCHLORIDE]
2. CN1CCC[C@@H]1CCO[C@](C)(c1ccccc1)c1ccc(Cl)cc1.O=C(O)/C=C/C(=O)O [CLEMASTINE FUMARATE]
3. CC[C@H](C)C(=O)O[C@H]1C[C@@H](C)C=C2C=C[C@H](C)[C@H](CC[C@@H]3C[C@@H](O)CC(=O)O3)[C@H]21

Solution:
1. 6
2. 14
3. 9

###

System: HEK-293T
Assay Remarks: Multiplex assay against HEK293T
Format: toxicity, cell-based
Condition Notes: human, 24 h, 1 µM, compound concentration 1 uM, replicate 1
Measurement Type: Population Membrane Permeable-Phenotype (%)

CC(C)NCC(O)COc1ccc(CCOCC2CC2)cc1.Cl (centres undefined) [BETAXOLOL HYDROCHLORIDE] ... 2%
C[C@@H](NCCCc1cccc(C(F)(F)F)c1)c1cccc2ccccc12.Cl [CINACALCET HYDROCHLORIDE] ... 1%
Cl.N#Cc1ccc2[nH]cc(CCCCN3CCN(c4ccc5oc(C(N)=O)cc5c4)CC3)c2c1 [VILAZODONE HYDROCHLORIDE] ... 3%

Now let's try a different one.
Looking up CN1CCCC(n2nc(Cc3ccc(Cl)cc3)c3ccccc3c2=O)CC1.Cl (centres undefined) [AZELASTINE HYDROCHLORIDE] , I see its Population Membrane Permeable-Phenotype (%) listed as 3%

###

Record form. Attribute: Growth Rate. Fill in for each entry.
Tested on: Fibroblast
Assay Remarks: Incucyte cell viability with human fibroblast; further: filed as whole numbers so only -1 and 0 and 1 occur
Format: toxicity, cell-based
Condition Notes: 18 h, 10 µM, compound concentration 10 uM, replicate number 1, timepoint 18 hours
One number for each entry.

Worked set:
Cc1cc(F)c(C(=O)Nc2cccc(-c3nncn3C(C)C)n2)cc1-n1cnc(C2CC2)c1 [SELONSERTIB] ... 1
O=C(/C=C/N1C[C@H]2C[C@@H]1CN2c1ccccn1)c1ccccc1O ... 1
Cc1c(-c2ccc(O)cc2)n(Cc2ccc(OCCN3CCCCCC3)cc2)c2ccc(O)cc12 [BAZEDOXIFENE] ... 0
CN(C)CC#Cc1ccc(OCCCc2sc(N3CCc4cccc(C(=O)Nc5nc6ccccc6s5)c4C3)nc2C(=O)O)c(F)c1 [A-1155463] ... 0
COc1ccc2cc(OCC3(C(=O)O)CN(C(=O)c4ccc(F)cc4)C3)ccc2c1 [PF-04418948] ... 0

Provide Growth Rate values for the following items, in order.
1. CCOc1cc(N2CCC(O)CC2)ccc1Nc1ncc2c(n1)N(C)c1ccccc1C(=O)N2C
2. O=C(Nc1cnc(Oc2ccc(F)cc2)nc1)N1CCc2ncccc2[C@@H]1c1ccc(F)cc1 [BAY-899]
3. Cc1nc(C(=O)N2CCC[C@H]2Cc2nnc(-c3ccccc3)o2)c(-c2ccccc2F)s1
4. O=S(=O)(c1ccccc1)N(CC(F)(F)F)c1ccc(C(O)(C(F)(F)F)C(F)(F)F)cc1 [T091317]

Solution:
1. 1
2. 1
3. 1
4. 0

Each molecule below has a reported value. Please supply its Growth Rate.
1. CS(=O)(=O)NC[C@H]1CC[C@H](Nc2nc3c(s2)CCSc2ccccc2-3)CC1
2. Cl.N#Cc1ccc2[nH]cc(CCCCN3CCN(c4ccc5oc(C(N)=O)cc5c4)CC3)c2c1 [VILAZODONE HYDROCHLORIDE]
3. CS(=O)(=O)c1cccc(NC(=O)N(Cc2ccc(C(=O)Nc3nn[nH]n3)cc2)c2ccc(C3CCCCC3)cc2)c1
4. CN(C)[C@@H]1CCN(c2cc(-c3ccccc3)nc3ccnn23)C1 [(R)-ZINC-3573]
5. O=C(O)C[C@H]1CCc2c1[nH]c1ccc(OCc3ccc(C4CCCC4)c(C(F)(F)F)c3)cc21 [ETRASIMOD]
6. COc1cccc(OC)c1-c1cc(C(=O)NC2(C(=O)O)C3CC4CC(C3)CC2C4)nn1-c1ccc(C(=O)N(C)CCCN(C)C)cc1C(C)C (stereo unspecified)
7. CNCc1ccccc1-c1csc([C@H](C)Nc2nc(C)nc3cc(OC)c(OC)cc23)c1 [BAY-294]

Solution:
1
0
0
1
1
0
0

###

Can you tell me Population Pyknosed Nuclei (%) for the items I'm about to list?
Tested on: HEK-293T
Assay Remarks: Multiplex assay against HEK293T
Type: toxicity, cell-based
Condition Notes: human, 12 h, 10 µM, compound concentration 10 uM, replicate 2
Record the result as number plus unit.

Here's what some known entries look like.
O=C1NCN(c2ccccc2)C12CCN(CCCOc1ccc(F)cc1)CC2 [SPIRAMIDE] ... 62%
CN1CCCC(n2nc(Cc3ccc(Cl)cc3)c3ccccc3c2=O)CC1.Cl (stereo not given) [AZELASTINE HYDROCHLORIDE] ... 70%

Your task in this section: give Population Pyknosed Nuclei (%) for each listed record.
1. CN(C)C(=O)N[C@H]1CC[C@H](CCN2CCN(c3cccc(Cl)c3Cl)CC2)CC1.Cl [CARIPRAZINE HYDROCHLORIDE]
2. CN1CCN(c2ccc(OC(F)(F)F)c(Nc3ncc4c(n3)-c3c(c(C(N)=O)nn3CCO)CC4)c2)CC1
3. Cl.N#Cc1ccc2[nH]cc(CCCCN3CCN(c4ccc5oc(C(N)=O)cc5c4)CC3)c2c1 [VILAZODONE HYDROCHLORIDE]
4. OC1(c2ccc(Cl)cc2)CCN(Cc2c[nH]c3ccccc23)CC1
5. CC(C)(O)CNc1ncc(-c2ccnc(Nc3ccnc(Cl)c3)n2)c(CC2CC2)n1
6. CN(C)CC#Cc1ccc(OCCCc2sc(N3CCc4cccc(C(=O)Nc5nc6ccccc6s5)c4C3)nc2C(=O)O)c(F)c1
7. CC[C@H](C)C(=O)O[C@H]1C[C@@H](C)C=C2C=C[C@H](C)[C@H](CC[C@@H]3C[C@@H](O)CC(=O)O3)[C@H]21

Solution:
79%
64%
70%
80%
91%
39%
49%

I would be grateful if you could provide Population Pyknosed Nuclei (%) for each of the following entries.
1. CN1CCC[C@@H]1CCO[C@](C)(c1ccccc1)c1ccc(Cl)cc1.O=C(O)/C=C/C(=O)O [CLEMASTINE FUMARATE]
2. Cc1nc(-c2cn3c(n2)-c2ccc(-c4cnn(C(C)(C)C(N)=O)c4)cc2OCC3)n(C(C)C)n1

Solution:
78%
4%

I need Population Pyknosed Nuclei (%) for every entry listed below, if you could help.
1. c1cn2cc(-c3ccc4cn[nH]c4c3)nc(Nc3ccc(N4CCOCC4)cc3)c2n1
2. CN1CCN(CCOc2cc(OC3CCOCC3)c3c(Nc4c(Cl)ccc5c4OCO5)ncnc3c2)CC1

Solution:
38%
71%

Please look at the items below and tell me Population Pyknosed Nuclei (%) for each one, in order.
1. CC(C)NCC(O)COc1ccc(CCOCC2CC2)cc1.Cl (stereo not given) [BETAXOLOL HYDROCHLORIDE]
2. Cc1csc2c(N[C@@H](C)CN3CCN(S(=O)(=O)c4ccc(Cl)c(Cl)c4)CC3)ncnc12

Solution:
65%
83%
